pIC50: −log10 of the molar value.
Please find below pIC50 data on Tyrosine-protein kinase ABL1 (Homo sapiens, UniProt P00519) compiled from the literature.

smiles_input=O=C(c1cc(O)ccc1F)c1c[nH]c2ncc(-c3ccsc3)cc12 endpoint_value="≥ 5.00"
smiles_input=Cc1c(NC(=O)Nc2ccc(Oc3ccnc(-c4cnn(C)c4)c3)cc2F)cnn1C1CCCC1 endpoint_value="> 7.00"
smiles_input=CSc1n[nH]c2nc(Nc3ccc(N4CCOCC4)cc3)nc(NCCCCCN)c12 endpoint_value="≥ 7.30"

Tell me reported pIC50 for `CCn1cc(C#Cc2cccc(C(=O)Nc3cccc(C(F)(F)F)c3)c2)c2c(N)ncnc21` , tested with Tyrosine-protein kinase ABL1 (Homo sapiens, UniProt P00519).
≥ 8.30

Tell me reported pIC50 for `O=C(O)/C=C/c1cccc(-c2cnc3[nH]cc(C(=O)c4ccccc4F)c3c2)c1` , tested with Tyrosine-protein kinase ABL1 (Homo sapiens, UniProt P00519).
≥ 5.00

Tell me reported pIC50 for `CC(C)n1cnc(NC(=O)Nc2ccc(Oc3ccnc(-c4cnn(C)c4)c3)cc2F)c1` , tested with Tyrosine-protein kinase ABL1 (Homo sapiens, UniProt P00519).
> 7.00
